protocolNotes: Cytotoxicity against human WPE1-NA22 cells assessed as cell growth inhibition at 10 uM relative to control
Assay type: toxicity, cell-based
recordedConditions: read-out: GI
measureName: inhibition at 10 µM (%)

compound="C[C@H]1O[C@H](O[C@H]2[C@H](O)[C@@H](O)[C@@H](O[C@H]3[C@H](O)[C@@H](O)C(O)O[C@@H]3CO)O[C@@H]2CO)[C@H](O)[C@@H](O)[C@@H]1N[C@H]1C=C(CO)[C@@H](O)[C@H](O)[C@H]1O (some centres undefined)" valueobserved=55.3
compound=CCOC(=O)C1=C(C)NC(C)=C(C(=O)OCC)C1c1cccc2c1OCO2 valueobserved=26.4
compound=COc1cccc2c1C(=O)c1c(O)c3c(c(O)c1C2=O)C[C@@](O)(C(=O)CO)C[C@@H]3O[C@H]1C[C@H](N)[C@H](O)[C@H](C)O1 valueobserved=57.1
compound="CCC1=C(C)CN(C(=O)NCCc2ccc(S(=O)(=O)NC(=O)N[C@H]3CC[C@H](C)CC3)cc2)C1=O [GLIMEPIRIDE]" valueobserved=27.8

----------
# Lookup of reported Activity keyed by entry
protocolNotes: Toxicity in high fat diet-STZ-induced diabetic Swiss albino mouse model assessed as changes in body weight at 0.2 mmol/Kg/day, po administered for 14 days (reference value: 26.6 to 27.8 g)
Assay type: organism-based
recordedConditions: in vivo, 336 h, time 14 day
measureName: Activity (g)

compound=COCCOC(=O)C1=C(C)NC(C)=C(C(=O)OCCOC)C1c1ccc2c(c1)OCO2 outputunit=g valueobserved=27.4
compound=CCOC(=O)C1=C(C)NC(C)=C(C(=O)OCC)C1c1cccc2c1OCO2 outputunit=g valueobserved=26.9
compound=CC1=C(C(=O)OC(C)(C)C)C(c2cccc3c2OCO3)C(C(=O)OC(C)(C)C)=C(C)N1 outputunit=g valueobserved=29.3
compound="CCOC(=O)C1=C(C)NC(C)=C(C(=O)OC(C)(C)C)C1c1cccc2c1OCO2 (stereo unspecified)" outputunit=g valueobserved=28.6
compound="CCOC(=O)C1=C(C)NC(C)=C(C(=O)OC)C1c1ccc2c(c1)OCO2 (stereo unspecified)" outputunit=g valueobserved=27.4
compound="CCOC(=O)C1=C(C)NC(C)=C(C(=O)OC(C)(C)C)C1c1ccc2c(c1)OCO2 (stereo unspecified)" outputunit=g valueobserved=27.9
compound="COC(=O)C1=C(C)NC(C)=C(C(=O)OC(C)C)C1c1cccc2c1OCO2 (stereo unspecified)" outputunit=g valueobserved=28.9
compound=CC1=C(C(=O)OC(C)C)C(c2ccc3c(c2)OCCO3)C(C(=O)OC(C)C)=C(C)N1 outputunit=g valueobserved=28.8
compound="CCOC(=O)C1=C(C)NC(C)=C(C(=O)OCCOC)C1c1ccc2c(c1)OCO2 (stereo unspecified)" outputunit=g valueobserved=27.2
compound="COCCOC(=O)C1=C(C)NC(C)=C(C(=O)OC)C1c1ccc2c(c1)OCO2 (stereo unspecified)" outputunit=g valueobserved=28.6
compound="COC(=O)C1=C(C)NC(C)=C(C(=O)OC(C)(C)C)C1c1cccc2c1OCO2 (stereo unspecified)" outputunit=g valueobserved=28.7
compound="CCOC(=O)C1=C(C)NC(C)=C(C(=O)OC(C)C)C1c1ccc2c(c1)OCO2 (stereo unspecified)" outputunit=g valueobserved=29.2
compound="CCOC(=O)C1=C(C)NC(C)=C(C(=O)OC)C1c1cccc2c1OCO2 (stereo unspecified) [OXODIPINE]" outputunit=g valueobserved=27.2
compound="COC(=O)C1=C(C)NC(C)=C(C(=O)OCc2ccccc2)C1c1ccc2c(c1)OCO2 (stereo unspecified)" outputunit=g valueobserved=27.4
compound="COC(=O)C1=C(C)NC(C)=C(C(=O)OC(C)C)C1c1ccc2c(c1)OCO2 (stereo unspecified)" outputunit=g valueobserved=28.3
compound="CCOC(=O)C1=C(C)NC(C)=C(C(=O)OC(C)C)C1c1cccc2c1OCO2 (stereo unspecified)" outputunit=g valueobserved=28.9
